# assay_comment: TOX21_p53_BLA_p5_viability: Viability Assessment in the Tox21 HCT-116 p53 Agonism Beta-lactamase Assay, Phase 5 (AID 2283600)
Results filed as inconclusive are left out. Activity calls are given as the source filed them. The calls were made as follows: active = hit-call score of the fitted dose curve at least 0.9, where 1 is the maximum; inconclusive = response in the unintended direction; inactive = score below 0.9.
Classes used: active, inactive

c1ccc2cc3c4ccccc4c4ccccc4c3cc2c1: inactive
CC(=O)Nc1cccc(O)c1: inactive
CC(=O)CCc1ccccc1: inactive
CC1=C(/C=C/C(C)=C/C=C/C(C)=C/C=C/C=C(C)/C=C/C=C(C)/C=C/C2=C(C)C[C@@H](O)CC2(C)C)C(C)(C)C[C@H](O)C1: active
Oc1ccccc1C=NCc1ccccc1: inactive
C[C@@H](CN1CC(=O)NC(=O)C1)N1CC(=O)NC(=O)C1: inactive
CC(C)[C@@H]1CC[C@@H](C)C[C@H]1OC(=O)c1ccccc1O: inactive
Cc1ccc(C(=O)C(C)CN2CCCCC2)cc1 (configuration not stated): inactive
O=C(Nc1ccc(/C=C/c2ccc(NC(=O)c3cc(S(=O)(=O)O)c4cccnc4c3O)cc2S(=O)(=O)O)c(S(=O)(=O)O)c1)c1cc(S(=O)(=O)O)c2cccnc2c1O: inactive
N=C(N)c1ccc(OCCCOc2ccc(C(=N)N)cc2Br)c(Br)c1: inactive
O=P(O)(O)OC(CO)CO: inactive
COc1ccc(C2C(=O)c3ccccc3C2=O)cc1: inactive
O=Cc1c(Cl)cccc1Cl: inactive
Cc1cccc(C)c1NC(=O)c1ccccc1C(=O)O: inactive
O=C1N=C(O)CN1N=Cc1ccc(-c2ccc([N+](=O)[O-])cc2)o1: inactive
CC(C)C1OCCN1CCOC(=O)NCCCCCCNC(=O)OCCN1CCOC1C(C)C (configuration not stated): inactive
Cc1cc(O)c(C(C)C)cc1Cl: inactive
NC(N)=Nc1nc(CSCCC(N)=NS(N)(=O)=O)cs1: inactive
CC(C)c1ccc2oc3nc(N)c(C(=O)O)cc3c(=O)c2c1: inactive
O=C=Nc1ccc(Cl)c(Cl)c1: inactive
O=S(=O)(O)c1ccc(O)cc1: inactive
CC[C@H]1OC(=O)[C@H](C)[C@@H](O[C@H]2C[C@@](C)(OC)[C@@H](O)[C@H](C)O2)[C@H](C)[C@@H](O[C@@H]2O[C@H](C)C[C@H](N(C)C)[C@H]2O)[C@](C)(O)C[C@@H](C)CN(C)[C@H](C)[C@@H](O)[C@]1(C)O: inactive
C[C@@H]1C[C@H]2[C@@H]3CCC4=CC(=O)C=C[C@]4(C)[C@@]3(F)[C@@H](O)C[C@]2(C)[C@@]1(O)C(=O)CO: inactive
O=C(NOCC1CC1)c1ccc(F)c(F)c1Nc1ccc(I)cc1Cl: active
C1CCC(C(CC2CCCCN2)C2CCCCC2)CC1 (configuration not stated): active
CCCCCCC1CCCC(=O)O1 (configuration not stated): inactive
CC(C)(C)CC(C)(C)c1ccc(OCCO)cc1: inactive
OCCN1CCN(CCCN2c3ccccc3Sc3ccc(C(F)(F)F)cc32)CC1: inactive
CCC(N)(CO)CO: inactive
C/C=C/c1ccc(OCC)c(O)c1: inactive
CC(C)Nc1cccnc1N1CCN(C(=O)c2cc3cc(NS(C)(=O)=O)ccc3[nH]2)CC1: inactive
C[C@@H](NCCCc1cccc(C(F)(F)F)c1)c1cccc2ccccc12: inactive
Cc1ncc(C[n+]2csc(CCOP(=O)(O)O)c2C)c(N)n1: inactive
CC=C(C(=CC)c1ccc(O)cc1)c1ccc(O)cc1: inactive
CCN(CC)CCNC(=O)c1c(C)[nH]c(/C=C2\C(=O)Nc3ccc(F)cc32)c1C: inactive
O=C1c2ccccc2C(=O)C1c1ccc(Cl)cc1: inactive
CC(C)COC(=O)c1ccc(O)cc1: inactive
NC(=O)c1ncn([C@@H]2O[C@H](CO)[C@@H](O)[C@H]2O)c1N: inactive
CCOc1ccc(NC(C)=O)cc1N: inactive
CCOC(=O)C=CC(=O)O: inactive
CCN(CC)C(=O)Nc1ccc(OCC(O)CNC(C)(C)C)c(C(C)=O)c1 (configuration not stated): inactive
C[C@@H]1CN(CCCn2c3ccccc3c3ccccc32)C[C@H](C)N1: inactive
CCCC(=O)CC: inactive
COc1cc(NS(=O)(=O)c2ccc(N)cc2)nc(OC)n1: inactive
CN(C)CC/C=C1/c2ccccc2COc2ccc(CC(=O)O)cc21: inactive
CC1CCc2nccnc21 (configuration not stated): inactive
O=C(CC(C(=O)OC1CCCCC1)S(=O)(=O)O)OC1CCCCC1 (configuration not stated): inactive

These entries and their values trace back to PubChem BioAssay (EPA / NIEHS).
